experiment: Pharmacokinetics of ROS after 10-day multiple-dose GLT in rats; format: in vivo, Sprague-Dawley rats; conditions: male, Sprague-Dawley, rat, plasma, po, 10 mg/kg, ROS 10 mg/kg oral, multiple-dose GLT 100 mg/kg for 10 days
property label: MRT (h)
State just the number; it will be interpreted in h.

Enquiry: // Input: CN(CCOc1ccc(CC2SC(=O)NC2=O)cc1)c1ccccn1 (stereo not shown) . Output its MRT only.
Return: 2.95

---

assay: Pharmacokinetics of ROS after 10-day multiple-dose GLT in rats; format: in vivo, Sprague-Dawley rats; conditions: male, Sprague-Dawley, rat, plasma, po, 10 mg/kg, ROS 10 mg/kg oral, multiple-dose GLT 100 mg/kg for 10 days
property label: half-life
Field: value (include unit after the number)

Enquiry: Assign half-life to the following record: CN(CCOc1ccc(CC2SC(=O)NC2=O)cc1)c1ccccn1 (stereo not shown)
Return: 1.99 h

---

I'd be grateful if you could share measured IC50 for these entries.
biological target: recombinant human CYP2C9 (RHCYP2C9) (Homo sapiens, UniProt P11712); experiment: Inhibition of RHCYP2C9 yeast microsomes, probe substrate diclofenac
Sequence (P11712 whole entry): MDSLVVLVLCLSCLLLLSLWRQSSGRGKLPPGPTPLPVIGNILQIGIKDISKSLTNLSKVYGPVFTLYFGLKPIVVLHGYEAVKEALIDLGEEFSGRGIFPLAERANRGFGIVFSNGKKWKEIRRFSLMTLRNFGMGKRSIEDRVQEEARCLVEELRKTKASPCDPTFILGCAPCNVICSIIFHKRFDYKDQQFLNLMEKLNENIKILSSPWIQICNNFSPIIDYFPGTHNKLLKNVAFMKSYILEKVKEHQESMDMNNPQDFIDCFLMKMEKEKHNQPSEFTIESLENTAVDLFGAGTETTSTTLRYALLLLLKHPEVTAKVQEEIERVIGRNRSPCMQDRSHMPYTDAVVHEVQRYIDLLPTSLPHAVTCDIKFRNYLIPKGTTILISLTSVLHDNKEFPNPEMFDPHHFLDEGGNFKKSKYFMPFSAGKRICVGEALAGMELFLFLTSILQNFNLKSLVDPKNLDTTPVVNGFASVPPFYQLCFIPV
Your answer is read as µM, so omit the unit and give the number.

Enquiry: For recombinant human CYP2C9 (RHCYP2C9) (Homo sapiens, UniProt P11712), give IC50 of the listed compound: O=c1c(O)c(-c2ccc(O)cc2)oc2cc(O)cc(O)c12
Return: 7.57

Enquiry: System recombinant human CYP2C9 (RHCYP2C9) (Homo sapiens, UniProt P11712). Read-out IC50. Item COc1cc(-c2oc3cc(O)cc(O)c3c(=O)c2O)ccc1O . Report value.
Return: 4.59

---

test: Pharmacokinetics of ROS with single-dose GLT in rats; settings: male, Sprague-Dawley, rat, plasma, po, 10 mg/kg, MRT, ROS 10 mg/kg oral, single-dose GLT 200 mg/kg
property label: MRT (h)
// note: answer is a bare numeric in h

Enquiry: Fill in MRT for record CN(CCOc1ccc(CC2SC(=O)NC2=O)cc1)c1ccccn1 (stereo not shown)
Return: 4.24

---

experiment: Pharmacokinetics of ROS after 10-day multiple-dose GLT in rats; type: in vivo, Sprague-Dawley rats; conditions: male, Sprague-Dawley, rat, plasma, po, 10 mg/kg, ROS 10 mg/kg oral, multiple-dose GLT 100 mg/kg for 10 days
property label: Cmax (ng/mL)
Dear colleague, please return just the value in ng/mL, with no unit written.

Enquiry: Could you please provide reported Cmax for CN(CCOc1ccc(CC2SC(=O)NC2=O)cc1)c1ccccn1 (stereo not shown) ? Thanks!
Return: 28500

---

assay: Pharmacokinetics of ROS with single-dose GLT in rats; conditions: male, Sprague-Dawley, rat, plasma, po, 10 mg/kg, t1/2, ROS 10 mg/kg oral, single-dose GLT 200 mg/kg
property label: half-life
Note: a bare number is incomplete; add the unit.

Enquiry: Could you please provide reported half-life for CN(CCOc1ccc(CC2SC(=O)NC2=O)cc1)c1ccccn1 (stereo not shown) [ROS, Rosiglitazone] ? Thanks!
Return: 3.26 h

---

experiment: Pharmacokinetics of ROS after 10-day multiple-dose GLT in rats; type: in vivo, Sprague-Dawley rats; details: male, Sprague-Dawley, rat, plasma, po, 10 mg/kg, ROS 10 mg/kg oral, control (vehicle 10 days)
property label: Cmax

Enquiry: Specify measured Cmax for CN(CCOc1ccc(CC2SC(=O)NC2=O)cc1)c1ccccn1 (stereo not shown) [ROS, Rosiglitazone] .
Return: 38700 ng/mL
